Biological target: CD80-CD28 interaction (Homo sapiens, UniProt P33681)
Sequence (P33681 35-242 limits assumed): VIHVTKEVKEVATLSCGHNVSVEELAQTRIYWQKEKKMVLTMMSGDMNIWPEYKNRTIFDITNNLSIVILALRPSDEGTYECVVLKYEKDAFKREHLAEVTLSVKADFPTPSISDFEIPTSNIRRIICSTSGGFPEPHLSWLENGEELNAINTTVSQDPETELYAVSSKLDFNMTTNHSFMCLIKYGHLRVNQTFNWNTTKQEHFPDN
Test: Homogenous Time Resolved Fluorescence (HTRF) assay, cell free
Assay type: binding
Conditions: cell-free HTRF, compound concentration series 100 μM-1.7 nM, 4 hours at room temperature; read-out: Activity (EC50 in the HTRF assay)
Overview of recorded EC50 for various compounds
assay endpoint: EC50

> print(dat)
                                   compound                                    system            result
1  CCOCCCNC(=O)Nc1ccc(-n2[nH]c3c(nnc4ccccc43)c2=O)cc1 [Example 128]  CD80-CD28 interaction (Homo sapiens, UniProt P33681)  1000 to 10000 nM
2  CC(C)CCC(C)NC(=O)c1ccc(-n2[nH]c3c(nnc4ccccc43)c2=O)cc1 (stereo not shown) [Example 96]  CD80-CD28 interaction (Homo sapiens, UniProt P33681)  1000 to 10000 nM
3  O=C(NCCc1cccnc1)c1ccc(-n2[nH]c3c(nnc4ccccc43)c2=O)cc1 [Example 95]  CD80-CD28 interaction (Homo sapiens, UniProt P33681)         < 1000 nM
4  CC(O)CCNC(=O)Nc1ccc(-n2[nH]c3c(nnc4ccccc43)c2=O)cc1 (stereo not shown) [Example 171]  CD80-CD28 interaction (Homo sapiens, UniProt P33681)         < 1000 nM
5  CCOC(CNC(=O)c1ccc(-n2[nH]c3c(nnc4ccccc43)c2=O)cc1)OCC [Example 45]  CD80-CD28 interaction (Homo sapiens, UniProt P33681)  1000 to 10000 nM
6  CCOC(=O)CCNC(=O)Nc1ccc(-n2[nH]c3c(nnc4ccccc43)c2=O)cc1 [Example 156]  CD80-CD28 interaction (Homo sapiens, UniProt P33681)  1000 to 10000 nM
7  O=C(NCCCN1CCOCC1)c1ccc(-n2[nH]c3c(nnc4ccccc43)c2=O)cc1 [Example 13]  CD80-CD28 interaction (Homo sapiens, UniProt P33681)         < 1000 nM

###

target: CD80-CD28 interaction (Homo sapiens, UniProt P33681); assay: Homogenous Time Resolved Fluorescence (HTRF) assay, cell free; format: binding; settings: cell-free HTRF, compound concentration series 100 μM-1.7 nM, 4 hours at room temperature; read-out: Activity (EC50 in the HTRF assay)
assay endpoint: EC50

> print(dat)
                                    molecule                                    system            result
 1  CC(C)(C)OC(=O)NCCCCCCNC(=O)c1ccc(-n2[nH]c3c(nnc4ccccc43)c2=O)cc1 [Example 117]  CD80-CD28 interaction (Homo sapiens, UniProt P33681)  1000 to 10000 nM
 2  O=C(NCCc1ccccn1)Nc1ccc(-n2[nH]c3c(nnc4ccccc43)c2=O)cc1 [Example 196]  CD80-CD28 interaction (Homo sapiens, UniProt P33681)  1000 to 10000 nM
 3  O=C(NCCc1ccncc1)c1ccc(-n2[nH]c3c(nnc4ccccc43)c2=O)cc1 [Example 20]  CD80-CD28 interaction (Homo sapiens, UniProt P33681)         < 1000 nM
 4  CN1CCN(CCCNC(=O)Nc2ccc(-n3[nH]c4c(nnc5ccccc54)c3=O)cc2)CC1 [Example 129]  CD80-CD28 interaction (Homo sapiens, UniProt P33681)         < 1000 nM
 5  O=C(NCCOc1ccccc1)c1ccc(-n2[nH]c3c(nnc4ccccc43)c2=O)cc1 [Example 63]  CD80-CD28 interaction (Homo sapiens, UniProt P33681)  1000 to 10000 nM
 6  CCCCCC(C)NC(=O)Nc1ccc(-n2[nH]c3c(nnc4ccccc43)c2=O)cc1 (stereo not shown) [Example 181]  CD80-CD28 interaction (Homo sapiens, UniProt P33681)        > 10000 nM
 7  O=C(Nc1ccc(-n2[nH]c3c(nnc4ccccc43)c2=O)cc1)NC1CCCN(Cc2ccccc2)C1 (stereo not shown) [Example 197]  CD80-CD28 interaction (Homo sapiens, UniProt P33681)  1000 to 10000 nM
 8  O=C(NCc1ccc([N+](=O)[O-])cc1)c1ccc(-n2[nH]c3c(nnc4ccccc43)c2=O)cc1 [Example 21]  CD80-CD28 interaction (Homo sapiens, UniProt P33681)  1000 to 10000 nM
 9  CCC(CC)NC(=O)Nc1ccc(-n2[nH]c3c(nnc4ccccc43)c2=O)cc1 [Example 187]  CD80-CD28 interaction (Homo sapiens, UniProt P33681)  1000 to 10000 nM
10  O=C(NCCCCCNC(=O)OCc1ccccc1)Nc1ccc(-n2[nH]c3c(nnc4ccccc43)c2=O)cc1 [Example 219]  CD80-CD28 interaction (Homo sapiens, UniProt P33681)  1000 to 10000 nM
11  CCN(CC)CCNC(=O)c1ccc(-n2[nH]c3c(nnc4ccccc43)c2=O)cc1 [Example 60]  CD80-CD28 interaction (Homo sapiens, UniProt P33681)         < 1000 nM
12  CCCCOCCCNC(=O)Nc1ccc(-n2[nH]c3c(nnc4ccccc43)c2=O)cc1 [Example 160]  CD80-CD28 interaction (Homo sapiens, UniProt P33681)        > 10000 nM
13  O=C(NCCCCCO)c1ccc(-n2[nH]c3c(nnc4ccccc43)c2=O)cc1 [Example 112]  CD80-CD28 interaction (Homo sapiens, UniProt P33681)         < 1000 nM
14  CCCCN(CCCC)CCCNC(=O)c1ccc(-n2[nH]c3c(nnc4ccccc43)c2=O)cc1 [Example 58]  CD80-CD28 interaction (Homo sapiens, UniProt P33681)         < 1000 nM
15  O=C(NCCSCc1c(F)cccc1Cl)Nc1ccc(-n2[nH]c3c(nnc4ccccc43)c2=O)cc1 [Example 180]  CD80-CD28 interaction (Homo sapiens, UniProt P33681)        > 10000 nM
16  CC(C)CCCC(C)NC(=O)c1ccc(-n2[nH]c3c(nnc4ccccc43)c2=O)cc1 (stereo not shown) [Example 26]  CD80-CD28 interaction (Homo sapiens, UniProt P33681)         < 1000 nM
17  CC1CCCCN1CCCNC(=O)Nc1ccc(-n2[nH]c3c(nnc4ccccc43)c2=O)cc1 (stereo not shown) [Example 186]  CD80-CD28 interaction (Homo sapiens, UniProt P33681)         < 1000 nM
18  CC(C)NCCCNC(=O)c1ccc(-n2[nH]c3c(nnc4ccccc43)c2=O)cc1 [Example 110]  CD80-CD28 interaction (Homo sapiens, UniProt P33681)         < 1000 nM
19  O=C(NCCN1CCNC1=O)c1ccc(-n2[nH]c3c(nnc4ccccc43)c2=O)cc1 [Example 36]  CD80-CD28 interaction (Homo sapiens, UniProt P33681)        > 10000 nM

###

target: CD80-CD28 interaction (Homo sapiens); test: Homogenous Time Resolved Fluorescence (HTRF) assay, cell free; type: binding; settings: cell-free HTRF, compound concentration series 100 μM-1.7 nM, 4 hours at room temperature; read-out: Activity (EC50 in the HTRF assay)
assay endpoint: EC50

> print(dat)
                                    compound                                system            result
 1  CCCCOC(=O)CNC(=O)Nc1ccc(-n2[nH]c3c(nnc4ccccc43)c2=O)cc1  CD80-CD28 interaction (Homo sapiens)        > 10000 nM
 2  NS(=O)(=O)c1ccc(CCNC(=O)c2ccc(-n3[nH]c4c(nnc5ccccc54)c3=O)cc2)cc1  CD80-CD28 interaction (Homo sapiens)  1000 to 10000 nM
 3  COCC(C)NC(=O)Nc1ccc(-n2[nH]c3c(nnc4ccccc43)c2=O)cc1 (stereo not shown) [Example 174]  CD80-CD28 interaction (Homo sapiens)  1000 to 10000 nM
 4  CN1C(C)(C)CC(NC(=O)Nc2ccc(-n3[nH]c4c(nnc5ccccc54)c3=O)cc2)CC1(C)C  CD80-CD28 interaction (Homo sapiens)  1000 to 10000 nM
 5  CC1CCC(NC(=O)c2ccc(-n3[nH]c4c(nnc5ccccc54)c3=O)cc2)CC1 (stereo not shown)  CD80-CD28 interaction (Homo sapiens)  1000 to 10000 nM
 6  CC[C@H](C)NC(=O)c1ccc(-n2[nH]c3c(nnc4ccccc43)c2=O)cc1  CD80-CD28 interaction (Homo sapiens)         < 1000 nM
 7  O=C(NC1CCCCCCCCCCC1)c1ccc(-n2[nH]c3c(nnc4ccccc43)c2=O)cc1  CD80-CD28 interaction (Homo sapiens)        > 10000 nM
 8  O=C(NC1CCCCCC1)c1ccc(-n2[nH]c3c(nnc4ccccc43)c2=O)cc1  CD80-CD28 interaction (Homo sapiens)  1000 to 10000 nM
 9  CC(C)NCCNC(=O)c1ccc(-n2[nH]c3c(nnc4ccccc43)c2=O)cc1  CD80-CD28 interaction (Homo sapiens)         < 1000 nM
10  CC(O)CCNC(=O)c1ccc(-n2[nH]c3c(nnc4ccccc43)c2=O)cc1 (stereo not shown)  CD80-CD28 interaction (Homo sapiens)         < 1000 nM
11  CCCNC(=O)c1ccc(-n2[nH]c3c(nnc4ccccc43)c2=O)cc1  CD80-CD28 interaction (Homo sapiens)  1000 to 10000 nM
12  CN1CCC(NC(=O)c2ccc(-n3[nH]c4c(nnc5ccccc54)c3=O)cc2)CC1  CD80-CD28 interaction (Homo sapiens)         < 1000 nM
13  O=C(NC1CCCC1OCc1ccccc1)c1ccc(-n2[nH]c3c(nnc4ccccc43)c2=O)cc1 (stereo not shown) [Example 90]  CD80-CD28 interaction (Homo sapiens)  1000 to 10000 nM
14  COCCNC(=O)Nc1ccc(-n2[nH]c3c(nnc4ccccc43)c2=O)cc1  CD80-CD28 interaction (Homo sapiens)  1000 to 10000 nM
15  CCC(C)NC(=O)Nc1ccc(-n2[nH]c3c(nnc4ccccc43)c2=O)cc1 (stereo not shown)  CD80-CD28 interaction (Homo sapiens)  1000 to 10000 nM
16  CCN(CC)CCCNC(=O)c1ccc(-n2[nH]c3c(nnc4ccccc43)c2=O)cc1  CD80-CD28 interaction (Homo sapiens)         < 1000 nM
17  CCCCC(CC)CNC(=O)c1ccc(-n2[nH]c3c(nnc4ccccc43)c2=O)cc1 (stereo not shown)  CD80-CD28 interaction (Homo sapiens)        > 10000 nM
18  CCN1CCCC1CNC(=O)Nc1ccc(-n2[nH]c3c(nnc4ccccc43)c2=O)cc1 (stereo not shown)  CD80-CD28 interaction (Homo sapiens)         < 1000 nM
19  CN(C)CCNC(=O)c1ccc(-n2[nH]c3c(nnc4ccccc43)c2=O)cc1  CD80-CD28 interaction (Homo sapiens)         < 1000 nM
20  CC(C)(C)OC(=O)NCCNC(=O)c1ccc(-n2[nH]c3c(nnc4ccccc43)c2=O)cc1  CD80-CD28 interaction (Homo sapiens)  1000 to 10000 nM
21  CN(C)CC(C)(C)CNC(=O)Nc1ccc(-n2[nH]c3c(nnc4ccccc43)c2=O)cc1  CD80-CD28 interaction (Homo sapiens)         < 1000 nM
22  O=C(NC1CCN(Cc2ccccc2)C1)c1ccc(-n2[nH]c3c(nnc4ccccc43)c2=O)cc1 (stereo not shown)  CD80-CD28 interaction (Homo sapiens)         < 1000 nM
23  O=C(NC1CCCN(Cc2ccccc2)C1)c1ccc(-n2[nH]c3c(nnc4ccccc43)c2=O)cc1 (stereo not shown)  CD80-CD28 interaction (Homo sapiens)         < 1000 nM
24  CC(C)NCCCNC(=O)Nc1ccc(-n2[nH]c3c(nnc4ccccc43)c2=O)cc1  CD80-CD28 interaction (Homo sapiens)         < 1000 nM
25  CC(C)CC(C)NC(=O)Nc1ccc(-n2[nH]c3c(nnc4ccccc43)c2=O)cc1 (stereo not shown)  CD80-CD28 interaction (Homo sapiens)        > 10000 nM
26  CCN(CC)CCCC(C)NC(=O)c1ccc(-n2[nH]c3c(nnc4ccccc43)c2=O)cc1 (stereo not shown)  CD80-CD28 interaction (Homo sapiens)         < 1000 nM
27  CCCCC(C)NC(=O)Nc1ccc(-n2[nH]c3c(nnc4ccccc43)c2=O)cc1 (stereo not shown)  CD80-CD28 interaction (Homo sapiens)  1000 to 10000 nM
28  O=C(NCCc1ccccc1)Nc1ccc(-n2[nH]c3c(nnc4ccccc43)c2=O)cc1  CD80-CD28 interaction (Homo sapiens)  1000 to 10000 nM

All values here come from patent US8309552B2.
